This section presents compounds with their documented growth values.
# Test system: BT-549 breast
# Assay text: NCI-60 one-dose screen, 48 h (100 = growth as untreated, 0 = no growth, -100 = all killed)
# Conditions used: 10 µM
About 83,000 compounds went through this panel and 20% of them were active in at least one assay; those are over-represented in the sample as a whole.

{"columns": ["Compound", "Assayed system", "growth / %"],
 "data": [
  ["CNS(=O)(=O)c1ccc(Cl)c(Cl)c1", "BT-549 breast", 112],
  ["O=C(OCC(O)C1OC(c2ccccc2)OC(COC(=O)c2ccccc2)C1O)c1ccccc1 (centres undefined)", "BT-549 breast", 110],
  ["c1ccc2c(c1)Sc1ccccc1S2", "BT-549 breast", 97.5],
  ["CCCCCC(C)(CC(=O)O)CC(=O)O", "BT-549 breast", 113],
  ["COc1ccc(NC(=O)CCl)cc1", "BT-549 breast", 66.3],
  ["COC(=O)/C=C\\C(=O)OC", "BT-549 breast", 99.7],
  ["c1cc[n+](C2c3ccccc3C([n+]3ccccc3)c3ccccc32)cc1 (centres undefined)", "BT-549 breast", 100],
  ["CCCCOC(=O)c1ccc(C(C)C)cc1", "BT-549 breast", 92.1],
  ["O=C(O)c1ccccc1NCc1ccco1", "BT-549 breast", 101],
  ["CC1CCC2C(C)(C)C3CC12CC1OC13C (centres undefined)", "BT-549 breast", 107],
  ["Cc1cccc(C(=O)N(C(C)C)C(C)C)c1", "BT-549 breast", 105],
  ["CCS(=O)(=O)CCCl", "BT-549 breast", 95.9],
  ["Cc1cc(C(C)(C)C)cc(C)c1Br", "BT-549 breast", 104],
  ["Nc1ccccc1SC(CC(=O)c1ccccc1)c1c(Cl)cccc1Cl (centres undefined)", "BT-549 breast", 68],
  ["CS(=O)CC1=NC(=N)N=C1CS(C)=O (centres undefined)", "BT-549 breast", 110],
  ["O=S(=O)(O)c1cc(O)c2c(N=Cc3ccccc3O)c(S(=O)(=O)O)ccc2c1", "BT-549 breast", 101],
  ["O=[N+]([O-])c1ccc(O)c(S(=O)(=O)O)c1", "BT-549 breast", 128],
  ["CN(C)/N=C/c1ccccc1O", "BT-549 breast", 97.5],
  ["CCC(C#N)(CC)c1ccccc1", "BT-549 breast", 100],
  ["S=c1nn[nH]c2ccccc12", "BT-549 breast", 106],
  ["O=C(CC(=O)c1ccccc1O)c1ccccc1", "BT-549 breast", 77.5],
  ["CCc1nn(Cc2ccccc2)c2nc(C)c(CCc3ccccc3)c(Cl)c12", "BT-549 breast", 99.3],
  ["COCCOCCCl", "BT-549 breast", 107],
  ["COC(=O)/C=C1\\Sc2cc(F)ccc2NC1=O", "BT-549 breast", 127],
  ["CC(C)(C)n1nc(C2CC2)c(Br)c1NC(=O)c1ccccc1F", "BT-549 breast", 110],
  ["C[N+](C)=c1ccc2nc3c(cc(Nc4ccccc4)c4ccccc43)oc-2c1", "BT-549 breast", 41.7],
  ["CC1CCCCN1C(=S)Nc1ccc(S(=O)(=O)N2CCCCC2)cc1 (centres undefined)", "BT-549 breast", 93.4],
  ["O=C1C[C@H](c2ccccc2)[C@H](c2ccccc2)C1", "BT-549 breast", 93.7],
  ["Cc1ccc(C(=O)NC2c3ccccc3Oc3ccccc32)cc1", "BT-549 breast", 62.6]
]}

* * *

# Tested on: HOP-92 NSCLC
# Assay text: NCI-60 one-dose screen, 48 h
# Conditions used: 10 µM
About 83,000 compounds went through this panel and 20% of them were active in at least one assay; those are over-represented in the sample as a whole. Activity calls are given as the source filed them. How the source made its calls: active means growth percent below 10; inactive means the rest.
Outcomes: true (1) for active, false (0) for inactive

{"columns": ["Compound", "Assayed system", "Class assignment"],
 "data": [
  ["CN(C)Cc1cc(C(C)(C)CC(C)(C)C)ccc1O", "HOP-92 NSCLC", "false (0)"],
  ["CNC(=S)NC(C)(C)C", "HOP-92 NSCLC", "false (0)"],
  ["Cc1ccc(S(=O)(=O)O)c(C)c1", "HOP-92 NSCLC", "false (0)"],
  ["O=C(c1ccccc1)C1CCC1", "HOP-92 NSCLC", "false (0)"],
  ["O=C(Nc1ccccc1C(=O)NCC1CC1)c1cccs1", "HOP-92 NSCLC", "false (0)"],
  ["CC(=O)OC1CC2C(C)(C)OC3CC(=O)OCC32C2CCC3(C)C(=CCC3c3ccoc3)C12C (configuration not stated)", "HOP-92 NSCLC", "true (1)"],
  ["CC(C)=NNc1ccc([N+](=O)[O-])cc1[N+](=O)[O-]", "HOP-92 NSCLC", "false (0)"]
]}

* * *

# Test system: HOP-62 NSCLC
# Assay text: NCI-60 one-dose screen, 48 h (100 = growth as untreated, 0 = no growth, -100 = all killed)
# Conditions used: 10 µM
The panel holds about 83,000 compounds, 20% with a hit somewhere; the sample as a whole holds those more often.
Is growth at least 90%? Then t. If not, f.

{"columns": ["Compound", "Class assignment"],
 "data": [
  ["COC(=O)c1[nH]c(=O)c(C#N)c(C(=O)OC)c1C(=O)c1ccccc1", "t"],
  ["O=C(Nc1cccc(NC(=O)Nc2cc(C(F)(F)F)ccc2Cl)c1)Nc1cc(C(F)(F)F)ccc1Cl", "f"],
  ["O=C1NC(=O)C2C(=O)NC(=O)C1C21CCc2ccccc21 (centres undefined)", "t"],
  ["Nc1ccc(C(=O)c2ccc(N)c(Br)c2)cc1Br", "f"],
  ["CCOC(=O)C(=O)C=P(c1ccccc1)(c1ccccc1)c1ccccc1", "t"],
  ["COc1cc2nn(-c3ccccc3N)nc2cc1OC", "t"],
  ["C/C=C/CC(C)C(O)C1C(=O)NC(CC)C(=O)N(C)CC(=O)N(C)C(CC(C)C)C(=O)NC(C(C)C)C(=O)N(C)C(CC(C)C)C(=O)NC(C)C(=O)NC(C)C(=O)N(C)C(CC(C)C)C(=O)N(C)C(CC(C)C)C(=O)N(C)C(C(C)C)C(=O)N1C (centres undefined)", "f"],
  ["COC(=O)c1cccnc1", "t"],
  ["O=c1[nH]c(O)c(/C=C2/C=Nc3ccccc32)[nH]1", "t"],
  ["O=C(O)c1ccc(S(=O)(=O)O)cc1", "t"],
  ["O=[N+]([O-])c1cccc(C(F)(F)F)c1", "t"],
  ["COc1ccccc1C1OC2=Nc3cc(C)c(C)cc3NC2C1=O (centres undefined)", "f"]
]}

* * *

# System: UACC-62 melanoma
# Assay text: NCI-60 one-dose screen, 48 h
# Conditions used: 10 µM unless noted
About 83,000 compounds went through this panel and 20% of them were active in at least one assay; those are over-represented in the sample as a whole. Calls of active or inactive are those of the source. The calls were made as follows: active = growth percent below 10; inactive = the rest.
Classes used: true (1) (active), false (0) (inactive)

{"columns": ["Molecule", "Class assignment"],
 "data": [
  ["COCCCNC(=O)c1nnn2c1nc(N)c1cc(Cl)ccc12", "false (0)"],
  ["COc1ccc(OC)c(/C=C2\\CCc3ccccc3C2=O)c1", "false (0)"],
  ["CN(C)c1ccc2oc(=O)c3ccccc3c2c1", "false (0)"],
  ["CN(C)c1nc2c([nH]1)c(=O)n(C)c(=O)n2C", "false (0)"],
  ["Cc1cc(OCCO)cc(C)c1Cl", "false (0)"],
  ["CCCCCCCCCCCCCCCCC1CC(=O)OC1=O (stereo unspecified)", "false (0)"],
  ["OCC1OC(OC2C(O)C(CO)OC2(CO)OC2OC(CO)C(O)C(O)C2O)C(O)C(O)C1O (stereo unspecified)", "false (0)"],
  ["Cc1cc(=O)n(-c2ccc(F)cc2)[nH]1", "false (0)"],
  ["CC(=O)c1c[nH]c2ccccc12", "false (0)"],
  ["CCOC(=O)CCCS(C)(=O)=O", "false (0)"],
  ["COc1ccc(-c2cc3c(nn2)-c2ccccc2C3=O)cc1", "false (0)"],
  ["COc1cc2c3c(n(C)c(=O)c2cc1OC)-c1cc2c(cc1C3=O)OCO2", "false (0)"],
  ["CC[N+](C)(CC)CCO", "false (0)"],
  ["CN(C)CCN(Cc1ccccc1)c1ccccc1", "false (0)"],
  ["CC1(c2ccccc2)NC(=O)NC1=O (stereo unspecified)", "false (0)"],
  ["CC(=O)c1ccc(C(C)(C)C)cc1", "false (0)"],
  ["COc1ccccc1N1CCN(C(=S)Nc2ccccc2)CC1", "false (0)"],
  ["O=c1[nH][nH]c(=O)c2cc([N+](=O)[O-])ccc12", "false (0)"],
  ["O=C1C[C@H](c2ccccc2)[C@H](c2ccccc2)C1", "false (0)"],
  ["OC(c1ccccn1)C(O)c1ccccn1 (stereo unspecified)", "false (0)"],
  ["COc1ccc2c(NCCCCCCCCNc3c4ccccc4nc4cc(OC)ccc34)c3ccccc3nc2c1", "true (1)"]
]}
